Target: HDAC1 (Homo sapiens, UniProt Q13547)
Sequence (Q13547 whole entry): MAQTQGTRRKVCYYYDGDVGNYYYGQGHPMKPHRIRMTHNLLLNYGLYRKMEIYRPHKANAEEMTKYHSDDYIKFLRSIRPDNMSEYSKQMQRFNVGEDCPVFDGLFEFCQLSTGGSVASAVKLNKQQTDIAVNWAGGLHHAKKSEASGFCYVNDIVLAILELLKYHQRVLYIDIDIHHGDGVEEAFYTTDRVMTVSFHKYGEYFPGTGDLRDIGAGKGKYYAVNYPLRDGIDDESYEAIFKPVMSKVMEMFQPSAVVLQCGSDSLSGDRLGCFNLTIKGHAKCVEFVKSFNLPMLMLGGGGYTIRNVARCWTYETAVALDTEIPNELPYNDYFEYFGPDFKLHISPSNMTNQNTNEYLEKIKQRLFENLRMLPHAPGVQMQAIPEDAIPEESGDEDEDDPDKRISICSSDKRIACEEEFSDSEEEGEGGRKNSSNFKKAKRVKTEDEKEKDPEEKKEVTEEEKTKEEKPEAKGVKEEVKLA
Assay: HDAC1 inhibitory activity (IC50)
Type: biochemical
Conditions: Table 3; read-out: IC50 against the deacetylase activity of HDAC1
MEASURE: IC50 (µM)
One number for each entry, in µM.

Would you mind telling me what IC50 value was observed for Nc1ccccc1NC(=O)c1cnccn1 [Compound 10, N-(2-aminophenyl)pyrazine-2-carboxamide] ? 2

----------
Molecular target: HDAC2 (Homo sapiens, UniProt Q92769)
Sequence (Q92769 whole entry): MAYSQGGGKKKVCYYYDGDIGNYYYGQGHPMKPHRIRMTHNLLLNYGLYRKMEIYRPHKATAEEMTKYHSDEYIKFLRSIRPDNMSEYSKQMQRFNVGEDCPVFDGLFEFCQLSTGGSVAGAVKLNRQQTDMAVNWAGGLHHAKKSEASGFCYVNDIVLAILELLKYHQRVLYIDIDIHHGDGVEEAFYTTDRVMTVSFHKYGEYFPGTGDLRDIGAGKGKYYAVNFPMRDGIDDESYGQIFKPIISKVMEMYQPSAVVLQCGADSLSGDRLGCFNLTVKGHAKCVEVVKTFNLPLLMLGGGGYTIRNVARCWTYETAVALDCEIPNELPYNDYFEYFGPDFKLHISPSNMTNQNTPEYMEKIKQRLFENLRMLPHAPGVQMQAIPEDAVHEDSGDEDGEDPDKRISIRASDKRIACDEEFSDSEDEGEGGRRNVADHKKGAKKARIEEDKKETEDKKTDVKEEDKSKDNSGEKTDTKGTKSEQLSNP
Assay: HDAC2 inhibitory activity (IC50)
Format: biochemical
Settings: Table 2; read-out: HDAC2
MEASURE: IC50
I'd appreciate it if you wrote the number followed by its unit.

compound=Nc1ccccc1NC(=O)c1ccncc1 measurement="2340 nM"

Give one value of IC50 per listed compound.
1. Cc1ccc(C(=O)Nc2ccccc2N)cn1
2. O=C(Nc1ccccc1O)c1cccnc1
3. O=C(Nc1ccccc1O)c1ccccn1
4. Nc1cc(F)ccc1NC(=O)c1cnccn1
5. Nc1cc(F)ccc1NC(=O)c1cccnc1

1. 1360 nM
2. 3670 nM
3. 4110 nM
4. 2320 nM
5. 13400 nM

Give one value of IC50 per listed compound.
1. Nc1ccccc1NC(=O)c1cnc(Nc2ccccc2)nc1
2. CC(=O)Nc1ccc(C(=O)Nc2ccc(F)cc2N)cc1

["1210 nM", "760 nM"]

Give one value of IC50 per listed compound.
1. O=C(Nc1ccc(F)cc1O)c1cccnc1
2. Nc1ccccc1NC(=O)c1ccccn1
3. CC(=O)Nc1ccc(C(=O)Nc2cc(-c3ccccc3)ccc2N)cc1
4. O=C(Nc1ccccc1O)c1ccncc1
5. Nc1ccccc1NC(=O)c1cnccn1 [Compound 10, N-(2-aminophenyl)pyrazine-2-carboxamide]

1. 5520 nM
2. 2360 nM
3. 60.4 nM
4. 1910 nM
5. 1490 nM

Would you mind telling me what IC50 value was observed for `Nc1ccccc1NC(=O)c1ccc(Cl)nc1` ? 2590 nM
